Recorded measurements of RAM network inhibition, one per entry
Assay: RAM signaling pathway blockade in yeast – S. cerevisiae, Pdr1DBD-CYC8 efflux-inhibited sensitized strain, primary screen (AID 1298);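 also: 0% = DMSO untreated cells without growth and 100% = 10 µM 1-NA-PP1 full growth; higher means more yeast growth rescued from 5-FOA killing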
Settings: S. cerevisiae cbk1-as DSE1-URA3 strain, 5-FOA growth OD615, 2 d; at 50 µM; active compounds read high
ENDPOINT_NAME: RAM network inhibition (%)

- O=C(NCc1ccc2c(c1)OCO2)C1CC(=O)N(CCc2ccccc2)C1 (stereo unspecified): 2.32
- CCN=C(NCC)SC1CC(=O)N(c2cccc(OC)c2)C1=O (stereo unspecified): 7.47
- CCC1(C(=O)O)NC(c2cccc(OC)c2O)C2C(=O)N(c3ccccc3)C(=O)C21 (stereo unspecified): 1.14
- CCCC(=O)Nc1cc(=O)n(C)c(=O)n1C: -0.88
- O=C(O)C1C2C=CC(C2)C1C(=O)NCCc1cccc(Cl)c1 (stereo unspecified): 2.92
- Cc1ccc(S(=O)(=O)N2CCCC2C(=O)Nc2nc3ccccc3s2)cc1 (stereo unspecified): 4.05
- O=C(c1ccc(Br)o1)N1CCN=C1SCc1cccnc1: 3.23
- CC(NC(=O)CSc1ncnc2nc[nH]c12)c1ccccc1 (stereo unspecified): 0.48
- CCCCC(=O)Nc1nc(C)c(C(C)=O)s1: -1
- CC(C)OC(=O)C1C2C=CC3(CN(C(C)c4ccc(Br)cc4)C(=O)C13)O2 (stereo unspecified): 6.84
- O=C(Nc1cccnc1)c1ccc(CN2CCc3ccccc3C2)cc1: 2.06
- O=C(CSc1oc(-c2ccc(F)cc2)nc1S(=O)(=O)c1ccc(F)cc1)NCC1CCCO1 (stereo unspecified): 6.87
- CCSc1nnc(NC(=O)C2CC=CCC2C(=O)O)s1 (stereo unspecified): 4
- CCCc1cc(=O)oc2cc3occ(C)c3cc12: 4.79
- CCCCCCn1c(SCC(=O)c2ccccc2)nc2c1c(=O)[nH]c(=O)n2C: 6.13
- CCCOC(=O)CSC1=C(C#N)C(c2ccccc2Cl)CC(=O)N1 (stereo unspecified): 2.16
- Cc1cc2nc3c(c(=O)n2[nH]1)CCCC3: -0.25
- CCOc1ccccc1N1CCN(C(=O)c2cc(C)oc2C)CC1: 0.7
- COc1cc(C(=O)n2nc(C)cc2C)cc(OC)c1OC: 2.67
- Cc1ccc(N(CC(=O)NCc2ccco2)S(=O)(=O)c2ccccc2)cc1: 1.9
- COc1cc2[nH]c(=O)n(CCCCCC(=O)N3CCN(c4ccccc4)CC3)c(=O)c2cc1OC: 0.58
- O=C1c2cccnc2C(=O)N1Cc1cccs1: 0.21
- C=CCNC(=O)C1CC(=O)N(c2ccc(C)cc2)C1 (stereo unspecified): 4.77
- Cc1ccc(CC(=O)N2CCC(c3nc4c(nnn4Cc4ccccc4)c(=O)[nH]3)CC2)cc1: 3
- O=C(CN1CCN(c2ccccn2)CC1)N(c1ccccc1)c1ccc2ccccc2c1: 5.32
- O=C(NCc1ccco1)C1c2ccccc2Oc2ccccc21: 3.94
- Cc1cc(S(=O)(=O)N2CCN(c3ccc(F)cc3)CC2)c(C)s1: 9.84
- COc1ccccc1S(=O)Cc1ccc(C(=O)NC2CCCC2)o1 (stereo unspecified): 3.24
- COc1ccc(C2C=C(c3ccc(C)c(C)c3)Nc3ncnn32)c(OC)c1OC (stereo unspecified): -1.46
- CCOC(=O)N1CCC(NC(=O)c2cc3c(C)nc4ccccc4c3o2)CC1: 3.54
- O=C(CSCC(=O)NC1CC1)Nc1ccccc1: -0.72
- O=S(=O)(NC1CCCCC1)c1cccc(-c2nnc(-c3ccccc3)o2)c1: 3.44
- N#Cc1nc(-c2ccccc2Cl)oc1NCC1CCCO1 (stereo unspecified): 1.33
- CCc1cccc(Nc2cc(C)nc3ncnn23)c1: 6.68
- CCOC(=O)Cn1c(CN2CCOCC2)nc2c1c(=O)n(C)c(=O)n2C: 2.19
- CSc1nc(N(CCO)CCO)c2sc3nc(-c4ccco4)c4c(c3c2n1)CCC4: 8.3
- O=C(c1ccc(CS(=O)(=O)c2ccc(Br)cc2)o1)N1CCN(c2ncccn2)CC1: 3.64
- Cc1nnc(SCc2ccc(Cl)cc2Cl)[nH]c1=O: 4.49
- COc1ccc(N=C(N(C)C)P(=O)(N(C)C)N(C)C)cc1: 6.63
- CCOc1ccc(C2CC(=O)NC(SC)=C2C#N)cc1 (stereo unspecified): 6.38
- CCCC(C)NC(=O)c1ccc(F)cc1 (stereo unspecified): 1.8
- N#Cc1ccc(N2CCN(C(=O)c3cccc(F)c3)CC2)c(F)c1: 0.57
- CC1(C)NC(=O)N(CC(O)COc2ccc(N3C(=O)c4ccccc4C3=O)cc2)C1=O (stereo unspecified): 0.17
- CCOC(=O)c1c(C)n(C)c2ccc(OCC(O)CN(CC)CC)cc12 (stereo unspecified): -0.57
- CCCC(=O)Nc1cccc(C(=O)Nc2nccs2)c1: 0.41
- COc1cccc2c(=O)n(CC(=O)NC3CCCCC3)ccc12: 4.45
